Each entry below carries its measured Ki, system: 5-hydroxytryptamine receptor 1D (Homo sapiens).
Sequence (P28221 whole entry): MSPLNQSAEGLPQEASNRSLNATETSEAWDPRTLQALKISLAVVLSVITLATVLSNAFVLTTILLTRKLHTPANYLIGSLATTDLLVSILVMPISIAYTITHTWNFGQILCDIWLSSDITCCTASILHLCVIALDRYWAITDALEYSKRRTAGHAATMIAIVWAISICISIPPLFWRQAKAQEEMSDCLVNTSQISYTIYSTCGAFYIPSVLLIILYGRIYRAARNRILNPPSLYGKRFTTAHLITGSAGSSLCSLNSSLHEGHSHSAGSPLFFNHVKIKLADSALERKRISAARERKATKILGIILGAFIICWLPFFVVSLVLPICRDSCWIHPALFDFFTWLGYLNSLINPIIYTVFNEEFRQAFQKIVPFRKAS
Kindly format the answer as number then unit.

Worked cases, answers included:
CCC(=O)Nc1ccc2[nH]cc(C3CCN(C)CC3)c2n1	730 nM
CN1CCC(c2c[nH]c3ccc(NC(=O)c4cccc([N+](=O)[O-])c4)nc23)CC1	330 nM
CN1CCC(c2c[nH]c3ccc(NC(=O)c4ccccc4)nc23)CC1	1000 nM

Prompt: Report measured Ki on 5-hydroxytryptamine receptor 1D (Homo sapiens); entry: CN1CCC(c2c[nH]c3ccc(NS(C)(=O)=O)nc23)CC1
Response: 380 nM

Prompt: Fill in: Ki on 5-hydroxytryptamine receptor 1D (Homo sapiens), entry CN1CCC(c2c[nH]c3ccc(NC(=O)c4cccc(F)c4)nc23)CC1
Response: 690 nM

Prompt: State Ki (5-hydroxytryptamine receptor 1D (Homo sapiens)) of CN1CCC(c2c[nH]c3ccc(N)nc23)CC1 .
Response: 420 nM

Prompt: Give Ki for CN1CCC(c2c[nH]c3ccc(NC(=O)Nc4ccc(F)cc4)nc23)CC1 tested on 5-hydroxytryptamine receptor 1D (Homo sapiens).
Response: 3.8 nM

Prompt: Send back 5-hydroxytryptamine receptor 1D (Homo sapiens) Ki of CN1CCC(c2c[nH]c3ccc(NC(=O)c4ccccc4[N+](=O)[O-])nc23)CC1 only.
Response: 170 nM

Prompt: Answer briefly: Ki recorded on 5-hydroxytryptamine receptor 1D (Homo sapiens) for CC(=O)Nc1cc2c(C3CCN(C)CC3)c[nH]c2cn1
Response: 39 nM

Prompt: Fetch value of Ki on 5-hydroxytryptamine receptor 1D (Homo sapiens) for CCCCCCCC(=O)Nc1ccc2[nH]cc(C3CCN(C)CC3)c2n1 .
Response: 110 nM

Prompt: Report the value of Ki obtained on 5-hydroxytryptamine receptor 1D (Homo sapiens) for COc1ccc2[nH]cc(C3CCN(C)CC3)c2n1 .
Response: 23 nM
